Catalogue of Activity readings, one per entry.
test system: Mus musculus; test: Antagonism of apomorphine induced climbing was determined in female swiss -Webster mice after (ip) administration of 10 mg/kg; assay type: functional
No unit in the answer, please; the number alone is enough.

Field: example entries. Status: answers known.
[ask] # Activity lookup, item CN1CCN(C2=Nc3ccccc3Cc3ccccc32)CC1 [PERLAPINE]
[reply] 7

[ask] Request the reported Activity associated with `CN1CCN(C2=Nc3ccc(O)cc3Sc3ccccc32)CC1`
[reply] 1

[ask] Sample CN1CCN(C2=Nc3cc(Cl)ccc3Nc3ccccc32)CC1 [CLOZAPINE] — what was its Activity?
[reply] 23

Next:
[ask] Field request: Activity | item: COCC(CCN1CCN(C2=Nc3ccccc3Sc3ccccc32)CC1)OC (stereo not given)
[reply] 5

[ask] Which Activity is reported for this molecule? COCC(CN1CCN(C2=Nc3ccccc3Sc3ccccc32)CC1)OC (stereo not given)
[reply] 1

---

molecular target: D(2) dopamine receptor (Rattus norvegicus, UniProt P61169); assay: Inhibition of spiropiperidone binding at dopamine receptor D2 of rat.
Sequence (P61169 whole entry): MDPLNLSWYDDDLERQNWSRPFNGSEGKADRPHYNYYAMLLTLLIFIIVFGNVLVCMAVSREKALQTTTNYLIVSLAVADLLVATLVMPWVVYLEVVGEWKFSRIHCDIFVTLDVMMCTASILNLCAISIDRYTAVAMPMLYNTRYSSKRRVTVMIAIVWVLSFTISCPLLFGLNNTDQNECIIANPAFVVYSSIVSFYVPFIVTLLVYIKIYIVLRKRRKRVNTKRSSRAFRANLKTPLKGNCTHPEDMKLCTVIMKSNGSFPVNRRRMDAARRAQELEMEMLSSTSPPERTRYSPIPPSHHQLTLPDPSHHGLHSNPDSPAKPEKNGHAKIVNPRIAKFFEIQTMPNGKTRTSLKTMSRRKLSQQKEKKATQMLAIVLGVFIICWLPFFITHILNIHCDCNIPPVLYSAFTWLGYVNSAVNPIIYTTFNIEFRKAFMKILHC
recordedEndpoint: IC50

For orientation, consider the following solved cases.
[ask] # returns recorded IC50 (system: D(2) dopamine receptor (Rattus norvegicus, UniProt P61169)) for `OCCOCCN1CCN(C2=Nc3cc(Cl)ccc3Cc3ccccc32)CC1`
[reply] 1000 nM

[ask] For the record COC(CO)CN1CCN(C2=Nc3ccccc3Sc3ccccc32)CC1 (stereo not given) , what value of IC50 is listed for D(2) dopamine receptor (Rattus norvegicus, UniProt P61169)?
[reply] 755 nM

[ask] Notebook: pull reported IC50 for D(2) dopamine receptor (Rattus norvegicus, UniProt P61169), entry `OCCOCCN1CCN(C2=Nc3ccc(F)cc3Sc3ccccc32)CC1`
[reply] 560 nM

[ask] Observed IC50 on D(2) dopamine receptor (Rattus norvegicus, UniProt P61169) for `OCCOCCOCCN1CCN(C2=Nc3ccccc3Sc3ccccc32)CC1` , please.
[reply] 1390 nM

New cases:
[ask] Kindly state the measured IC50 obtained for COCC(CCN1CCN(C2=Nc3ccccc3Sc3ccccc32)CC1)OC (stereo not given) with D(2) dopamine receptor (Rattus norvegicus, UniProt P61169).
[reply] 293 nM

---

Here the recorded Activity is given for each entry.
system: Mus musculus; test: Antagonism of apomorphine induced climbing was determined in female swiss -Webster mice after (ip) administration of 20 mg/kg; format: functional
Reply: number alone, nothing else.

Use these answered entries as a reference point.
[ask] So what does the record say about Activity for COCC(CN1CCN(C2=Nc3ccccc3Sc3ccccc32)CC1)OC (stereo not drawn) ?
[reply] 2

[ask] Give the measured Activity of c1ccc2c(c1)N=C(N1CCN(CC3CCCO3)CC1)c1ccccc1S2 (stereo not drawn) .
[reply] 2

Note: attention shifts to another entry.
[ask] I have this molecule here, COC(CO)CN1CCN(C2=Nc3ccccc3Sc3ccccc32)CC1 (stereo not drawn) , and I need its recorded Activity.
[reply] 2
